This collection of values is drawn from patent US20250361288A1.

target: T1, human LTβR extracellular domain fused with an Fc fragment at the C-terminus (human, UniProt P36941 31-227); experiment: phage ELISA
T1 construct: extracellular domain; Bought; also called hLTβR; not shown: Fc fragment at the C-terminus
T1 sequence (P36941 31-227): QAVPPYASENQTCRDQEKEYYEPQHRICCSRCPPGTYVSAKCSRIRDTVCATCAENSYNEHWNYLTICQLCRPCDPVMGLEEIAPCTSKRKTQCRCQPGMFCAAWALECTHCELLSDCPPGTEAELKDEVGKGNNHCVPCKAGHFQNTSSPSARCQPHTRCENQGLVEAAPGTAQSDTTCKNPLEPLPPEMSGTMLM
measure.name: binding result

LIGHT-67 (ligand, Printed mutations: T161S, L220S, L227T; Soluble protein carries an N-terminal His tag) DGPAGSWEQLIQERRSHEVNPAAHLTGANSSLTGSGGPLLWETQLGLAFLRGLSYHDGALVVTKAGYYYIYSKVQLGGVGCPLGLASSITHGLYKRTPRYPEELELLVSQQSPCGRATSSSRVWWDSSFLGGVVHLEAGEKVVVRVSDERLVRTRDGTRSYFGAFMV: binds
LIGHT-59 (ligand, Printed mutations: S160G, T161P, L220S; Soluble protein carries an N-terminal His tag) DGPAGSWEQLIQERRSHEVNPAAHLTGANSSLTGSGGPLLWETQLGLAFLRGLSYHDGALVVTKAGYYYIYSKVQLGGVGCPLGLAGPITHGLYKRTPRYPEELELLVSQQSPCGRATSSSRVWWDSSFLGGVVHLEAGEKVVVRVSDERLVRLRDGTRSYFGAFMV: binds
LIGHT-72 (ligand, Printed mutations: Q117N, S160G, L220S, L227T; Soluble protein carries an N-terminal His tag) DGPAGSWEQLIQERRSHEVNPAAHLTGANSSLTGSGGPLLWETNLGLAFLRGLSYHDGALVVTKAGYYYIYSKVQLGGVGCPLGLAGTITHGLYKRTPRYPEELELLVSQQSPCGRATSSSRVWWDSSFLGGVVHLEAGEKVVVRVSDERLVRTRDGTRSYFGAFMV: binds
